Test system: envelope glycoprotein of Zaire Ebolavirus
experiment: Selectivity index, ratio of CC50 for human A549 cells to IC50 for inhibition of envelope glycoprotein in HIV pseudotyped Zaire Ebolavirus infected in human A549 cells assessed as reduction in virus entry
Format: toxicity, cell-based
condition-info: read-out: Ratio CC50/IC50
Task for the reader: assign each of the following compounds its reported selectivity ratio.
Answers are plain numbers.

Example entries and their recorded answers appear below.
compound | tested-on | selectivity ratio
Cc1c(Cc2ccccc2)c(=O)oc2cc(OCCCNc3nccs3)ccc12 | envelope glycoprotein of Zaire Ebolavirus | 2.8
Cc1c(Cc2ccccc2)c(=O)oc2cc(OCC(O)CNc3cc([N+](=O)[O-])ccc3O)ccc12 (stereo not given) | envelope glycoprotein of Zaire Ebolavirus | 12
Cc1noc(C)c1-c1ccc(Cc2c(C)c3ccc(OCC(O)CN4CCC(C(N)=O)CC4)cc3oc2=O)cc1 (stereo not given) | envelope glycoprotein of Zaire Ebolavirus | 7.1

get_value(item= Cc1c(Cc2ccccc2)c(=O)oc2cc(OCC(O)CNC3CCOCC3)ccc12 (stereo not given) , readout=selectivity ratio) returns 17.4

Reference for the values: ChEMBL document CHEMBL4765392
